Measured values drawn from PubChem BioAssay for this set.

Molecular target: Torsin-1A-interacting protein 1 (Homo sapiens)
Test: LAP1 binders from COS7 cell lysate, primary screen, small-molecule microarray, 635/667 nm fluorescence (AID 1116)
Details: COS7-hLAP1 lysate binding, 635 nm fluorescence, higher = more signal
Assay metric: composite z-score
Lab note: write the figure by itself, no unit.

In the examples that follow, each entry is paired with its recorded composite z-score.
Molecule	composite z-score
O=C(O)[C@H]1C[C@H]2C(=O)N[C@@H](Cc3ccccc3)C(=O)N2[C@H]1c1cccc(OCCO)c1	0.543
CCCCNC(=O)c1ccc(C#C[Si](C(C)C)(C(C)C)C(C)C)c(OC(C)=O)c1	0.15
CC(C)CNC(=O)[C@@]1(c2ccc([N+](=O)[O-])cc2)CC(=O)N(C2CCCCC2)[C@@H]1c1ccc(CO)cc1	2
CCc1cccc(NC(=O)O[C@H]2[C@H](OC(=O)Nc3ccccc3)[C@H](OC(=O)Nc3ccccc3)[C@@H](OC)O[C@@H]2CO)c1	1.03
COc1ccc([Si](C)(C)[C@@H]2[C@@H](CCn3cc([C@H](O)c4ccccc4)nn3)O[C@]3(C(=O)N(c4ccccc4)c4ccccc43)[C@H]2C)cc1	0.0664
COCCOC(=O)N1C(=O)[C@@]2(c3cc(C#CCC(C(=O)OC)C(=O)OC)ccc31)[C@H](c1ccc(O)cc1)N1[C@H](c3ccccc3)[C@H](c3ccccc3)OC(=O)[C@H]1[C@@H]2C(=O)NC[C@H](O)c1ccccc1	1.06
COCCOC(=O)N1C(=O)[C@@]2(c3cc(C#CCNC(N)=O)ccc31)[C@H](c1ccc(OCCO)cc1)N1[C@H](c3ccccc3)[C@H](c3ccccc3)OC(=O)[C@H]1[C@@H]2C(N)=O	0.803
COCC(=C=CC[C@@H](O)c1ccc(OCCO)cc1)CCO	0.506
C[C@]1(C(=O)NCCN2CCOCC2)c2ccccc2C(=O)N(Cc2cc(F)cc(C(F)(F)F)c2)[C@H]1c1ccc(CO)cc1	1.88
CO[C@H]1O[C@H](CO)[C@@H](OC(=O)CCc2ccccc2)[C@H](OC(=O)c2cc3ccccc3[nH]2)[C@H]1OC(=O)c1cc2ccccc2[nH]1	1.21

Q: Which value of composite z-score has been reported for "CCCC=C(CCC)[C@@H](NS(=O)(=O)c1cccc2cccnc12)c1ccc(-c2ccccc2)cc1" in the records?
Result: 0.765

Q: # repeat for "C=C(/C(=C/C[C@@H](OC(C)=O)c1ccc(CO)o1)c1cc(C(=O)OC)ccc1OC)C(C)C"
Result: -0.144

Q: # repeat for "CC(C)C(=C=CC[C@@H](O)c1cccc(OCCO)c1)C[C@@H](O)COCc1ccccc1"
Result: 0.0535
